Tested on: Fibrinogen (Alexa647-labelled)
Test: fibrinogen binders on compound microarrays, profiling panel, artefact control for SMM control-protein annotation, biochemical, small-molecule microarray, 635/667 nm fluorescence (AID 1131);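 also: z-score merges 667 nm fluorescence with per-spot signal-to-noise over triplicate slides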
Details: fibrinogen-A647 binding fluorescence, higher = more signal

molecule	measured_on	composite z-score
CC(C)C[C@@H]1NC(=O)[C@H]2C[C@@H](C(=O)NCCCCCCNC(=O)CS)[C@@H](c3ccc(O)cc3)N2C1=O	Fibrinogen (Alexa647-labelled)	0.0675
COC(=O)[C@@]1(Cc2ccc(OC)cc2)[C@H]2c3cc(C(=O)N4CCCC4)n(CCc4ccc(OC)c(Br)c4)c3C[C@H]2CN1C(=O)c1ccccc1	Fibrinogen (Alexa647-labelled)	0.406
CN(C)CCCC[C@@H]1NC(=O)[C@@H]2C[C@H](C(=O)NCc3ccc(F)cc3)[C@H](c3ccc(O)cc3)N2C1=O	Fibrinogen (Alexa647-labelled)	0.348
C=C(CCCC)/C(=C/C[C@H](OC(C)=O)c1cccc(OCCO)c1)c1cc(C(=O)OC)ccc1OC	Fibrinogen (Alexa647-labelled)	0.33
C=CCC(OC(C)=O)[C@@H]1[C@@H](N(Cc2ccc(-c3cccc(C(F)(F)F)c3)o2)C(=O)Cc2ccc(F)cc2)c2cc(OCCCO)ccc2N1C(=O)c1ccc2ccccc2n1 (stereo partly specified)	Fibrinogen (Alexa647-labelled)	-1.12
COCCOC(=O)N1C(=O)[C@@]2(c3ccccc31)[C@H](C(=O)N1CCCCCCC1)[C@H]1C(=O)O[C@H](c3ccccc3)[C@H](c3ccccc3)N1[C@@H]2c1ccc(O)cc1	Fibrinogen (Alexa647-labelled)	0.842

* * *

Below, each entry is listed alongside its reported composite z-score.
Biological target: Albumin (Bos taurus) (UniProt P02769)
Sequence (P02769 whole entry, looked up): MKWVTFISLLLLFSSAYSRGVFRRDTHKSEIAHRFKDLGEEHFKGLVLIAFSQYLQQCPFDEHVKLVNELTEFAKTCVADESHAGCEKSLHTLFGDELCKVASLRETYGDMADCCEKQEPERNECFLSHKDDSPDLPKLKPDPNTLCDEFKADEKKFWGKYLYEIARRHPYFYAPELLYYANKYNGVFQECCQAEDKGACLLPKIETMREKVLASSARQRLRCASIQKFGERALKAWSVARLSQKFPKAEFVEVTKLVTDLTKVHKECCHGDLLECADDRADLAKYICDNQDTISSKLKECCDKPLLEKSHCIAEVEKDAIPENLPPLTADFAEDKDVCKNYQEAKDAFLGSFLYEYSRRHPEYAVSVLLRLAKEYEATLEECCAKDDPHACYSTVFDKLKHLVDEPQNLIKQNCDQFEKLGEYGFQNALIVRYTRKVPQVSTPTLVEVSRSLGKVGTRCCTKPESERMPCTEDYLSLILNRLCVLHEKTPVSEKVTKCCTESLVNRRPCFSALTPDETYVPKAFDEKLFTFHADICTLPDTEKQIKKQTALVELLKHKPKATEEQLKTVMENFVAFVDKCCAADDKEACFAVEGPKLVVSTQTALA
Experiment: bovine serum albumin binders on microarray, profiling panel, artefact control for SMM control protein annotation, biochemical, small-molecule microarray, Alexa647 label, 635/667 nm fluorescence (AID 1118);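 also: score merges 667 nm emission intensity and signal-to-noise per printed compound spot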
Conditions: BSA-A647 binding, fluorescence 635 nm, higher = more signal

molecule	composite z-score
CC(C)C[C@@H]1NC(=O)C([C@@H](C)OCc2ccccc2)NC(=O)[C@@]23C(=O)N[C@@H](Cc4ccccc4)C2[C@H](C)[C@@]2(C)O[C@H]2C3/C=C/CC/C=C/CNC1=O (stereo partly specified)	0.438
CCN(CC)c1ccc(N2CC=CC34O[C@@H]5C=CCOC(=O)[C@@H]5[C@H]3C(=O)N(CCCO)[C@@H]4C2=O)cc1 (stereo partly specified)	-0.997
C=C(COC)/C(=C/C[C@H](OC(=O)c1ccncc1)c1cccc(OCCO)c1)c1cnc2ccccc2c1	0.671
O=C(NCCO)C1=C[C@H](Oc2ccccc2I)[C@@H](O)[C@H](NCc2ccc(F)cc2)C1	-1.89
COC(=O)C(CC#Cc1ccc2c(c1)[C@]1(C(=O)N2)[C@H](c2ccc(O)cc2)N2[C@H](c3ccccc3)[C@H](c3ccccc3)OC(=O)[C@H]2[C@@H]1C(=O)N1CCc2cc(OC)c(OC)cc2C1)C(=O)OC	-0.1
CCCCN1CC=CC23O[C@@H]4C=CCOC(=O)[C@@H]4[C@H]2C(=O)N(CCO)[C@@H]3C1=O (stereo partly specified)	-0.852
NC(=O)N1C(=O)C2C(C1=O)C1C=C(CCCO)C2C(c2ccc(CN3CCCC3)cc2)N1Cc1cccc(OC(F)(F)F)c1 (stereo unspecified)	0.0639
CC(C)(C)OC(=O)CC[C@]1(C(N)=O)N=C(c2ccc(OCCCO)cc2)O[C@H]1c1ccccc1CN=[N+]=[N-]	0.712
CC(=O)NCCCC[C@@H]1NC(=O)[C@H]2C[C@@H](C(=O)NCCCCCC[N+](C)(C)C)[C@@H](c3ccc(O)cc3)N2C1=O	0.596
COCCOC(=O)N1C(=O)[C@@]2(c3cc(C#CC4=CCCCC4)ccc31)[C@H](c1ccc(OCCO)cc1)N1[C@H](c3ccccc3)[C@H](c3ccccc3)OC(=O)[C@H]1[C@@H]2C(=O)N1CCCCCCC1	0.263
COCCOC(=O)N1C(=O)[C@@]2(c3cc(C#CCC(C(=O)OC)C(=O)OC)ccc31)[C@H](C(N)=O)[C@H]1C(=O)O[C@H](c3ccccc3)[C@H](c3ccccc3)N1[C@@H]2c1ccc(OCCO)cc1	0.483
CC(C)[Si](C#CCCCC#N)(O[C@H](c1ccccc1)c1cn([C@H](C)c2ccccc2)nn1)C(C)C	0.221
CC(C)CNC(=O)[C@@H]1c2ccccc2C(=O)N(C2Cc3ccccc3C2)[C@H]1c1ccc(CO)cc1	-0.191
COC(=O)[C@@]1(Cc2ccc(F)cc2)[C@H]2c3cc(C(=O)N(C)C)n(CCN4CCOCC4)c3C[C@H]2CN1C(=O)c1ccccc1	0.851
CCCCC(=C=CC[C@@H](O)c1cccc(OCCO)c1)C[C@@H](O)COCc1ccccc1	0.59
C=CCC(OC(C)=O)[C@@H]1[C@@H](N(Cc2cccc3ccccc23)C(=O)c2ccc(-c3ccccc3)cc2)c2cc(OCCCO)ccc2N1C(=O)c1ccc2ccccc2n1 (stereo partly specified)	0.192
CCc1cccc(NC(=O)O[C@H]2[C@H](OC(=O)Nc3ccc4c(c3)OCO4)[C@H](OC(=O)Nc3ccc4c(c3)OCO4)[C@@H](OC)O[C@@H]2CO)c1	0.208
C=CCN1C(=O)[C@]2(O[C@H](CCO)[C@@H]([Si](C)(C)c3ccc(OC)cc3)[C@@H]2C)c2ccccc21	0.482
COc1ccc([Si](C)(C)[C@H]2[C@H](CCn3cc([C@H](O)c4ccccc4)nn3)O[C@@]3(C(=O)N(C)c4c(Br)cc(C)cc43)[C@@H]2C)cc1	-0.628
COC(=O)Cn1c(C(=O)N(C)C)cc2c1C[C@H]1CN(C(=O)c3ccccc3)[C@@](Cc3ccc(OC)cc3)(C(=O)OC)[C@@H]21	0.938
COc1ccc(NN2C(C(O)c3ccc(OC)cc3)C=CC3C(=O)N(C4CCCCC4)C(=O)C32)cc1 (stereo unspecified)	0.828
CC(=O)NCCCC[C@@H]1NC(=O)[C@@H]2C[C@H](C(=O)NCCCCCC[N+](C)(C)C)[C@H](c3ccc(O)cc3)N2C1=O	-0.78
COCCOC(=O)N1C(=O)[C@@]2(c3cc(C#CC4=CCCCC4)ccc31)[C@H](C(=O)N1CCc3cc(OC)c(OC)cc3C1)[C@H]1C(=O)O[C@H](c3ccccc3)[C@H](c3ccccc3)N1[C@@H]2c1ccc(O)cc1	0.482
Cc1ccc(S[C@]2(C(=O)NC3CC3)CC(=O)N(Cc3cc(C(F)(F)F)cc(C(F)(F)F)c3)[C@@H]2c2ccc(CO)cc2I)cc1	0.0876
C=CCC(OC(C)=O)[C@@H]1[C@@H](N(Cc2ccc(-c3cccc(C(F)(F)F)c3)o2)C(=O)c2cccc3ccccc23)c2cc(OCCCO)ccc2N1C(=O)c1ccc2ccccc2c1 (stereo partly specified)	-0.119
COc1cc2c(cc1O)C(c1ccc(CN3CCCC3)cc1)N(Cc1cccc(OC(F)(F)F)c1)CC2 (stereo unspecified)	0.771

* * *

Experiment: small-molecule microarray binders of probe aDKK1, primary screen, biochemical, biotinylated probe, 635/667 nm fluorescence (AID 1099);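 also: score merges 667nm spot fluorescence with signal to noise across triplicate slides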
Settings: higher = more signal
Assign Y whenever composite z-score does not fall below 0.1; assign N whenever it does.

compound	group
C=CCC(OC(C)=O)[C@@H]1[C@@H](N(Cc2ccc(-c3ccccc3)cc2)C(=O)c2cccc3ccccc23)c2cc(OCCCO)ccc2N1C(=O)c1ccc2ccccc2c1 (stereo not given in full)	Y
O=C1C2C=CC(C(O)c3cccc(O)c3)N(Nc3ccccc3F)C2C(=O)N1c1ccccc1 (stereo not given)	N
C#CCN([C@H](/C=C/C1CC1)[C@@H](O)Cc1ccccc1)[C@@H](Cc1ccccc1)C(=O)OC	N
CCOC(=O)C[C@H]1[C@H](OC(=O)Cc2ccc3c(c2)OCO3)[C@@H](NC(=O)c2ccccc2)c2cc(OCCCO)ccc2N1C(=O)Cc1ccc(OC)cc1	N
C=CCNC(=O)[C@@H]1[C@H]2C(=O)O[C@H](c3ccccc3)[C@H](c3ccccc3)N2[C@H](c2ccccc2OCCO)[C@@]12C(=O)N(C(=O)OCCOC)c1ccc(C#CCCO)cc12	N
COCC(=C=CC[C@@H](O)c1ccc(OCCO)cc1)C[C@@H](O)COCc1ccccc1	N
CC(C)C[C@@H]1NC(=O)[C@@]23C(=O)N[C@@H](Cc4ccccc4)C2[C@H](C)[C@@]2(C)O[C@H]2C3/C=C/C/C=C\CNC(=O)[C@@H](CC(C)C)NC1=O (stereo not given in full)	N
COc1ccc(C#Cc2ccc3c(c2)[C@]2(C(=O)N3)[C@H](c3ccc(OCCO)cc3)N3[C@H](c4ccccc4)[C@H](c4ccccc4)OC(=O)[C@H]3[C@@H]2C(=O)O)cc1	Y
O=C1NC(=O)C2C1C=CC(C(O)c1ccc(F)cc1)N2Nc1ccccn1 (stereo not given)	N
CN1C(=O)C2C(C1=O)C1C=C(c3ccc(CO)cc3)C2C(c2cccs2)N1C (stereo not given)	N
CC(C)(C)OC(=O)CC[C@]1(C(N)=O)N=C(c2ccc(OCCCO)cc2)O[C@H]1c1ccccc1CN=[N+]=[N-]	Y
C=C(COC)C(=O)CC[C@@H](OC(=O)c1cccnc1)c1cccc(OCCO)c1	Y
CC(=O)c1ccc(C(O)C2C=CC3C(=O)N(C)C(=O)C3N2NC(=O)OC(C)(C)C)cc1 (stereo not given)	Y
CN(C)CCCC[C@@H]1NC(=O)[C@H]2C[C@@H](C(=O)NCc3ccc(F)cc3)[C@@H](c3ccc(O)cc3)N2C1=O	N
COC(=O)[C@@]1(Cc2ccc(F)cc2)[C@H]2c3cc(C(=O)N(C)C)n(CCN4CCOCC4)c3C[C@H]2CN1C(=O)c1ccccc1	Y
